# measured on: Macrophage-stimulating protein receptor (Homo sapiens) (UniProt Q04912)
# Sequence (Q04912 25-304 limits assumed): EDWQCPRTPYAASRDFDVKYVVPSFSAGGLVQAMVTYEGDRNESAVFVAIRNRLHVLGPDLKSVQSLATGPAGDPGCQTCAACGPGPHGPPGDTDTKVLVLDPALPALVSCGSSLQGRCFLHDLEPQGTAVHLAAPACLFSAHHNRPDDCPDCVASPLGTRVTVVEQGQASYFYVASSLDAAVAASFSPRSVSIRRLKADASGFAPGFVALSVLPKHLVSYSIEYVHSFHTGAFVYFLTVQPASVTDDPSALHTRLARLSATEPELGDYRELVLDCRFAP
# Sequence (Q04912 310-1400 limits assumed): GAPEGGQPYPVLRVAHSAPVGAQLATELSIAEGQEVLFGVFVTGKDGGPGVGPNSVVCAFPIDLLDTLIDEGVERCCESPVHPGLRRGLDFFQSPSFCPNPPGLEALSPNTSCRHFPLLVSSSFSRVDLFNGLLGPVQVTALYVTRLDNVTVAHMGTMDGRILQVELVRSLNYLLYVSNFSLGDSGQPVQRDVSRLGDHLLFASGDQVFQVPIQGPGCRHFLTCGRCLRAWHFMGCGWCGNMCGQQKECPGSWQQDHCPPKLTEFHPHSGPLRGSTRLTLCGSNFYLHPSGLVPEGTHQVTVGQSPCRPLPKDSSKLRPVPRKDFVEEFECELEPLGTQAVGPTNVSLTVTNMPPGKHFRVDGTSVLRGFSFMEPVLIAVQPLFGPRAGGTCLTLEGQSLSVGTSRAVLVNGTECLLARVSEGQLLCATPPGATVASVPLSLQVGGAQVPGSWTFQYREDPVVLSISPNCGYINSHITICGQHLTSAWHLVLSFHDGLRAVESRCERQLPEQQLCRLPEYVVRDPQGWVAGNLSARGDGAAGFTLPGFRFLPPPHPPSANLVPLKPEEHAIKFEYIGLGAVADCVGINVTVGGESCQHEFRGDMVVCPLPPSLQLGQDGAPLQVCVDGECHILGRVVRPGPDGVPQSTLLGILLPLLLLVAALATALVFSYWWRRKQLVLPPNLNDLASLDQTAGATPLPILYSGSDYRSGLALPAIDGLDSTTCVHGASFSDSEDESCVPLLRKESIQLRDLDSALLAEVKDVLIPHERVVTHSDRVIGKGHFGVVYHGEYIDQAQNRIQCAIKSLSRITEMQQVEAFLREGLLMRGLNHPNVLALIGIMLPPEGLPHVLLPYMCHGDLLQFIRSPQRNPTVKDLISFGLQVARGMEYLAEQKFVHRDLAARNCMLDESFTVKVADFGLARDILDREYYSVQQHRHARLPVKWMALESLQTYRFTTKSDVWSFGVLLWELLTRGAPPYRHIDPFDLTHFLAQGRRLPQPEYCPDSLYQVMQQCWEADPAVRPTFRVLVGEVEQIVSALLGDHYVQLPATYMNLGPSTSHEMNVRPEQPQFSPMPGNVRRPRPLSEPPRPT
# measurement parameters: at 1 µM
Catalogue of compounds with associated residual activity
# value in %; strip the unit string

residual activity reported for this compound `COc1cc2ncnc(Nc3ccc(NC(=O)c4ccccc4)cc3)c2cc1OC` : 87

Others:
residual activity reported for this compound `CNc1cc2c(Nc3cccc(Br)c3)ncnc2cn1` : 88

residual activity reported for this compound `Ic1cccc(CSc2nnc(-c3ccncc3)o2)c1` : 81

----------
# measured on: Discoidin domain-containing receptor 2 (Homo sapiens) (UniProt Q16832)
# Sequence (whole entry): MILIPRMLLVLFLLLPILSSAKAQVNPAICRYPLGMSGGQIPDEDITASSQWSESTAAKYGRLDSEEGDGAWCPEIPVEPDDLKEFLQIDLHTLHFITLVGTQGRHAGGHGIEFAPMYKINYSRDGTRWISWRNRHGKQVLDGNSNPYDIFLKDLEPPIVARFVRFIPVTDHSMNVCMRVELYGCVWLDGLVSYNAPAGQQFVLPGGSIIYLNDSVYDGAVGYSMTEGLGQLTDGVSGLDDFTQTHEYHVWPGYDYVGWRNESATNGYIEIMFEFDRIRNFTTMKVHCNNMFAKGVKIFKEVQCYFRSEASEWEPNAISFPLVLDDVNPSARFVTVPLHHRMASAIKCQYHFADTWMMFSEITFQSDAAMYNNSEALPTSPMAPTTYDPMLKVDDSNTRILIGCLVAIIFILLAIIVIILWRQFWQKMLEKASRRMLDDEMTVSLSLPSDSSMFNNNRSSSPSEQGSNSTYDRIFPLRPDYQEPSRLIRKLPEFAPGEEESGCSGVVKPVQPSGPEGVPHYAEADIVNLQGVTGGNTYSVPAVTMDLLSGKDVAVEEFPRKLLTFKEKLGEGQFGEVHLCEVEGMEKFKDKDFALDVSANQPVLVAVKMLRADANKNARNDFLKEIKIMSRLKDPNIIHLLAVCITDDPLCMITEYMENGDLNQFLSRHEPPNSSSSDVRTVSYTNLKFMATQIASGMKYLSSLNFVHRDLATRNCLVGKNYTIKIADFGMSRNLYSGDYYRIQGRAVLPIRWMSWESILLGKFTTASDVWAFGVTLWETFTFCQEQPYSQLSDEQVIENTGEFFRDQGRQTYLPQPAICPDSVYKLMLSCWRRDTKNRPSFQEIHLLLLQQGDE
# measurement parameters: at 10 µM
measured quantity: residual activity (%)
# value in %; strip the unit string

Example results:
Entry `CCN(CC)C(=O)c1ccc(Nc2nc(OCC3CCCCC3)c3nc[nH]c3n2)cc1` ; assay system Discoidin domain-containing receptor 2 (Homo sapiens) (UniProt Q16832); residual activity recorded at 66

Entry `CCOc1cc2ncnc(Nc3cccc(Br)c3)c2cc1OCC` ; assay system Discoidin domain-containing receptor 2 (Homo sapiens) (UniProt Q16832); residual activity recorded at 66

Entry `O=C1Nc2cc(Br)ccc2/C1=C1/Nc2ccccc2/C1=N\O` ; assay system Discoidin domain-containing receptor 2 (Homo sapiens) (UniProt Q16832); residual activity recorded at 37

Entry `COc1cc2ncnc(N3CCN(C(=O)Nc4ccc(Oc5ccccc5)cc4)CC3)c2cc1OC` ; assay system Discoidin domain-containing receptor 2 (Homo sapiens) (UniProt Q16832); residual activity recorded at 117

Entry `Cc1cccc(-c2[nH]c(C(C)(C)C)nc2-c2ccc3c(c2)OCO3)n1` ; assay system Discoidin domain-containing receptor 2 (Homo sapiens) (UniProt Q16832); residual activity recorded at 98

Others:
Entry `COc1cc2ncnc(Nc3ccc(Oc4ccccc4)cc3)c2cc1OC` ; assay system Discoidin domain-containing receptor 2 (Homo sapiens) (UniProt Q16832); residual activity recorded at 103

Entry `Nc1cccc(-c2cc3c(Oc4cccc(O)c4)ncnc3[nH]2)c1` ; assay system Discoidin domain-containing receptor 2 (Homo sapiens) (UniProt Q16832); residual activity recorded at 4
